The origin of these recorded values is patent US20260091020A1.

assayOverview: Plasma PK of ANEB-001 and THC, 50 and 100 mg oral Compound 1 with THC (Example 2)
Format: in vivo, human
conditionNotes: human, in vivo, 10 mg THC + 50 mg ANEB-001; 0.67 hrs; read-out: THC Concentration in Plasma, Mean
measuredMetric: concentration at 0.67 h

Could you tell me which concentration at 0.67 h is on file for CCCCCc1cc(O)c2c(c1)OC(C)(C)[C@@H]1CCC(C)=C[C@@H]21 [THC, Δ9-tetrahydrocannabinol] ?
2.9 ng/mL

###

assayOverview: Plasma PK of ANEB-001 and THC, 50 and 100 mg oral Compound 1 with THC (Example 2)
Format: in vivo, human
conditionNotes: human, in vivo, 10 mg THC + 100 mg ANEB-001; 3 hrs; read-out: THC Concentration in Plasma, Median
Experimental: A phase 2 clinical study was conducted using the design outlined in FIG. 1. Briefly, 60 adult healthy volunteers ages 18-45 (20 per arm) were selected for a randomized, double blind placebo-controlled study. Volunteers were divided into three groups: (1) THC (Δ9-Tetrahydrocannabinol, 10.5 mg)+placebo; (2) THC (10.5 mg)+Compound 1 (50 mg); and (3) THC (10.5 mg)+Compound 1 (100 mg). […] Following the general methods of Example 1, pharmacodynamic properties were measured for Compound 1 (FIGS. 13A-13F).
measuredMetric: concentration at 3 h (ng/mL)
Report as a plain number; the unit ng/mL is understood.

# input compound: CCCCCc1cc(O)c2c(c1)OC(C)(C)[C@@H]1CCC(C)=C[C@@H]21 [THC, Δ9-tetrahydrocannabinol] ; wanted: its concentration at 3 h
0.639

###

assayOverview: Plasma PK of ANEB-001 and THC, 50 and 100 mg oral Compound 1 with THC (Example 2)
Format: in vivo, human
conditionNotes: human, in vivo, 10 mg THC + 100 mg ANEB-001; 0.33 hrs; read-out: THC Concentration in Plasma, Median
measuredMetric: concentration at 0.33 h (ng/mL)
Answer with a number only, understood to be in ng/mL.

Fill in: concentration at 0.33 h of CCCCCc1cc(O)c2c(c1)OC(C)(C)[C@@H]1CCC(C)=C[C@@H]21 [THC, Δ9-tetrahydrocannabinol] is ___
0.986

###

assayOverview: Plasma PK of ANEB-001 and THC, 30 mg or 10 mg oral Compound 1 with 21 mg THC (Example 4)
Type: in vivo, human
conditionNotes: human, in vivo, 21 mg THC + 30 mg ANEB-001; 03H00M; read-out: THC in Plasma (concentration), Median
measuredMetric: concentration at 3 h (ng/mL)
API: value field is a number in ng/mL; no unit string.

Form field: reported concentration at 3 h of CCCCCc1cc(O)c2c(c1)OC(C)(C)[C@@H]1CCC(C)=C[C@@H]21 [THC, Δ9-tetrahydrocannabinol]
2.03

###

assayOverview: Plasma PK of ANEB-001 and THC, 30 mg or 10 mg oral Compound 1 with 21 mg THC (Example 4)
Format: in vivo, human
conditionNotes: human, in vivo, 21 mg THC + 30 mg ANEB-001; read-out: THC plasma AUClast, Mean
Procedure: Following the general methods of Example 2, the study design was adjusted such that groups received either (a) THC (21 mg)+placebo or (b) THC (21 mg)+Compound 1 (30 mg) (FIG. 14) or either (a) THC (21 mg)+placebo or (b) THC (21 mg)+Compound 1 (10 mg) (FIG. 15). […] All PK parameter calculations were based on actual sampling time. […] AUC was calculated using the log-linear trapezoidal rule. […]
measuredMetric: AUC(0-t)
Kindly write the number and append the unit.

Could you tell me which AUC(0-t) is on file for CCCCCc1cc(O)c2c(c1)OC(C)(C)[C@@H]1CCC(C)=C[C@@H]21 [THC, Δ9-tetrahydrocannabinol] ?
19.3 ng·h/mL
